# ASSAY_INFO: The drug is tested on Clostridium sp. strain: fecal isolate for biotransformation. The drug concentrations were measured before and after a 12-h incubation by liquid-chromatography-coupled mass spectrometry (LC–MS)
# CONDITION_LABEL: 2 µM
PROPERTY_LABEL: Bacterial Biotransformation

> print(dat)
                                   compound              assay.result
1  O=C(O)CCc1nc(-c2ccccc2)c(-c2ccccc2)o1 [OXAPROZIN]  Compound NOT metabolized
2  CC[C@@]1(O)C(=O)OCc2c1cc1n(c2=O)Cc2cc3c(CN(C)C)c(O)ccc3nc2-1 [TOPOTECAN]  Compound NOT metabolized
3  CC1=C(CC(=O)O)c2cc(F)ccc2/C1=C\c1ccc([S+](C)[O-])cc1 (stereo not given)  Compound NOT metabolized
4  CCN(CC)C(=O)/C(C#N)=C/c1cc(O)c(O)c([N+](=O)[O-])c1 [ENTACAPONE]      Compound metabolized
5  CNCCC(Oc1ccc(C(F)(F)F)cc1)c1ccccc1 (stereo not given) [FLUOXETINE]      Compound metabolized

Provenance of the data: ChEMBL document CHEMBL5303573
